Tested on: NCI-H196 SCLC complex tumor spheroid viability
assay.comment: Anticancer human tumor NCI-H196 cell line growth inhibition;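 also: spheroids exposed to compounds for 7 days before readout; 100% = DMSO vehicle control wells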
condition.info: second compound 10 µM; first compound 0.3 µM; hits give low values
measured.endpoint: viability, T/C (%)
Enter your answer as a number in %; do not include the unit.

Problem: What does the data say about its viability, T/C? Entry: Cc1sc2c(c1C)C(c1ccc(Cl)cc1)=NC(CC(=O)Nc1ccc(O)cc1)c1nnc(C)n1-2 (centres undefined) + Cn1nnc2c(C(N)=O)ncn2c1=O
Solution: 69.1

Problem: What does the data say about its viability, T/C? Entry: CNCc1ccc(-c2cc(-c3nc(-c4ccc(S(=O)(=O)C(C)C)cc4)cnc3N)on2)cc1 + Cn1nnc2c(C(N)=O)ncn2c1=O
Solution: 99.5

Problem: What does the data say about its viability, T/C? Entry: O=C(c1cc(Cc2n[nH]c(=O)c3ccccc23)ccc1F)N1CCN(C(=O)C2CC2)CC1 + Cn1nnc2c(C(N)=O)ncn2c1=O
Solution: 97.9

Problem: What does the data say about its viability, T/C? Entry: Cn1ncnc1[C@H]1c2n[nH]c(=O)c3cc(F)cc(c23)N[C@@H]1c1ccc(F)cc1 + Cn1nnc2c(C(N)=O)ncn2c1=O
Solution: 90.9
